All values here come from ChEMBL document CHEMBL1201862.

- Test system: 786-0
- testSummary: NCI tumour cell line growth inhibition, 48 h
Activity calls are given as the source filed them. Rule as the data show it: active = GI50 up to about 1.1 µM and inactive = higher.
Listing: GI50 of selected compounds

Record excerpt, results attached:
>  <compound>
CC1(/C=C/CCSc2ccccc2)CC(=O)C2CC1C2(C)C (centres undefined)

>  <GI50>
20.2 µM (inactive)

$$$$
>  <compound>
COC(=O)c1cc(NC(=O)Cn2c3ccccc3c3ccccc32)cn1C

>  <GI50>
29.7 µM (inactive)

$$$$
>  <compound>
COc1ccc2c(c1)C(=O)C1CC(=O)CCC21 (centres undefined)

>  <GI50>
> 100 µM (inactive)

$$$$
>  <compound>
O=[N+]([O-])c1cc(Cl)cc2cc(Br)cnc12

>  <GI50>
21.4 µM (inactive)

$$$$
>  <compound>
CC1(C)CC(c2c[nH]c3ccccc23)=CC2=Nc3ccccc3C21O (centres undefined)

>  <GI50>
43.7 µM (inactive)

$$$$
>  <compound>
Cc1[nH]n(-c2ccccc2)c(=O)c1C(N(CCc1ccccc1)C1=NCC(C)S1)(C(F)(F)F)C(F)(F)F (centres undefined)

>  <GI50>
13.9 µM (inactive)

$$$$

In: GI50 lookup needed for CCOC(=O)C1C(=O)CC1(C)C (centres undefined) , thanks.
Out: > 10 µM (inactive)

In: GI50 lookup needed for COc1ccc(/C=C/c2nnc(S)[nH]2)cc1OC , thanks.
Out: > 100 µM (inactive)

In: GI50 lookup needed for O=C1C=C(OCCCl)C(=O)c2c(O)ccc(O)c21 , thanks.
Out: 1.62 µM (inactive)

In: GI50 lookup needed for N/N=C(\C(=O)Nc1ccc([N+](=O)[O-])cc1)C(C1=Nc2cc([N+](=O)[O-])ccc2NC1)[N+](=O)[O-] (centres undefined) , thanks.
Out: > 100 µM (inactive)

In: GI50 lookup needed for COc1ccccc1NC1=NCC(C)S1 (centres undefined) , thanks.
Out: > 100 µM (inactive)

In: GI50 lookup needed for CCOC(=O)CC(C)C1(C(=O)OCC)CCCCC1=O (centres undefined) , thanks.
Out: 55 µM (inactive)

In: GI50 lookup needed for CC1(Br)Cc2ccccc2C1=O (centres undefined) , thanks.
Out: 2.15 µM (inactive)

In: GI50 lookup needed for N#CC(C#N)=CSc1ccccc1 , thanks.
Out: 16.7 µM (inactive)

In: GI50 lookup needed for CC1(Br)S(=O)(=O)OCCOS1(=O)=O , thanks.
Out: > 100 µM (inactive)
